- assayExplanation: Inhibition of Escherichia coli MurD ligase assessed as residual activity at 500 uM after 15 mins by colorimetric malachite green assay
measuredQuantity: Activity (%)
Reply with just the number (in %).

O=C(O)CC[C@@H](NC(=O)c1cc(/C=C2\SC(=S)NC2=O)ccc1F)C(=O)O: 67
N=C1NC(=O)/C(=C/c2ccc(C(=O)N[C@H](CCC(=O)O)C(=O)O)cc2)S1: 95
CN1C(=O)/C(=C/c2ccc(C(=O)N[C@H](CCC(=O)O)C(=O)O)cc2)SC1=S: 85
O=C(O)CC[C@@H](NC(=O)c1ccc(CC2SC(=S)NC2=O)cc1)C(=O)O (stereo partly drawn): 96
O=C(O)CC[C@@H](NC(=O)c1cccc(CC2SC(=S)NC2=O)c1)C(=O)O (stereo partly drawn): 91
O=C(O)CC[C@@H](NC(=O)c1ccc(/C=C2\SC(=S)N(CC(=O)O)C2=O)cc1)C(=O)O: 96
COC(=O)CC[C@@H](NC(=O)c1cccc(CC2SC(=S)NC2=O)c1)C(=O)OC (stereo partly drawn): 91

// moving on: another record for Activity
Prompt: Name the recorded Activity of the molecule listed here: `O=C(O)CC[C@@H](NC(=O)c1ccc(/C=C2\NC(=O)NC2=O)cc1)C(=O)O`
Response: 97

---

- assayExplanation: Inhibition of Escherichia coli MurD ligase after 15 mins by colorimetric malachite green assay
# IC50 per entry
// note: answer is a bare numeric in µM

O=C(O)CC[C@H](NC(=O)c1cccc(/C=C2\SC(=S)NC2=O)c1)C(=O)O: 172
O=C(O)CC[C@@H](NC(=O)c1ccc(/C=C2\SC(=S)NC2=O)cc1)C(=O)O: 45

Prompt: Quick one: give measured IC50 for `O=C(O)CC[C@@H](NC(=O)c1cccc(/C=C2\SC(=S)NC2=O)c1)C(=O)O`
Response: 89

Prompt: Fill in reported IC50 for this entry: `O=C(O)CC[C@H](NC(=O)c1ccc(/C=C2\SC(=S)NC2=O)cc1)C(=O)O`
Response: 10

---

- assayExplanation: Inhibition of Escherichia coli MurD ligase assessed as residual activity at 250 uM after 15 mins by colorimetric malachite green assay
The entries below come with measured Activity values attached.
# output: bare number, implied unit %

O=C(O)CC[C@H](NC(=O)c1ccc(/C=C2\SC(=O)NC2=O)cc1)C(=O)O: 93
O=C(O)CC[C@H](NC(=O)c1cccc(/C=C2\SC(=O)NC2=O)c1)C(=O)O: 96
O=C(O)CC[C@@H](NC(=O)c1ccc(/C=C2\SC(=O)NC2=O)cc1)C(=O)O: 96

Next:
Prompt: Supply measured Activity of `O=C(O)CC[C@@H](NC(=O)c1cccc(/C=C2\SC(=O)NC2=O)c1)C(=O)O` in your reply.
Response: 97
